- Target entity: Tyrosine-protein phosphatase non-receptor type 1 (Homo sapiens)
- Sequence (P18031 whole entry): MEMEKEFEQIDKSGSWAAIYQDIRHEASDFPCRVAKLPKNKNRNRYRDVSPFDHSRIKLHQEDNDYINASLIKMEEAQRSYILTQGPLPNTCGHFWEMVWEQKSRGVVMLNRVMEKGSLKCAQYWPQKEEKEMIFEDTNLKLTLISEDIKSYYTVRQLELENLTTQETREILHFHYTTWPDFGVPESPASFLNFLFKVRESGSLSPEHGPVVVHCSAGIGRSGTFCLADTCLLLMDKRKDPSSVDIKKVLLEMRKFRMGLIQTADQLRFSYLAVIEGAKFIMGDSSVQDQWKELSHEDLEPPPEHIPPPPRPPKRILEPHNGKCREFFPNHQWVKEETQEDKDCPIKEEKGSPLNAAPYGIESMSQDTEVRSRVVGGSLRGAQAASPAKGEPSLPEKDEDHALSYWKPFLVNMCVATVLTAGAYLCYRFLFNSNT
- Protocol details: Inhibition of protein tyrosine phosphatase-1B at 10 uM incubated for 10 mins using pNPP substrate in presence of 0.01% Triton X-100 by modified Goldstein method
pIC50: −log10 of the molar value.
Quantity kind: pIC50

Known pIC50 results, listed for orientation:
Molecule: COc1ccc(-c2cc(-c3ccccc3)no2)c(OCCCN2CCCC2)c1
Target entity: Tyrosine-protein phosphatase non-receptor type 1 (Homo sapiens)
Experimental value: 5.46
//
Molecule: COc1ccc(-c2cc(-c3ccccc3)no2)c(OCCN2CCCC2)c1
Target entity: Tyrosine-protein phosphatase non-receptor type 1 (Homo sapiens)
Experimental value: 5.82
//
Molecule: COc1ccc(-c2cc(-c3ccccc3)no2)c(OCC2CO2)c1 (stereo unspecified)
Target entity: Tyrosine-protein phosphatase non-receptor type 1 (Homo sapiens)
Experimental value: 4.50
//
Molecule: CCOC(=O)COc1cc(OC)ccc1-c1cc(-c2ccccc2)no1
Target entity: Tyrosine-protein phosphatase non-receptor type 1 (Homo sapiens)
Experimental value: 5.27
//
Molecule: CCOC(=O)CCCOc1cc(OC)ccc1-c1cc(-c2ccccc2)no1
Target entity: Tyrosine-protein phosphatase non-receptor type 1 (Homo sapiens)
Experimental value: 4.57
//
Molecule: COc1ccc(-c2cc(-c3ccccc3)no2)c(OCC(O)CN2CCCCC2)c1 (stereo unspecified)
Target entity: Tyrosine-protein phosphatase non-receptor type 1 (Homo sapiens)
Experimental value: 5.48

I = COc1ccc(-c2cc(-c3ccccc3)no2)c(OCCN(C(C)C)C(C)C)c1
II = COc1ccc(-c2cc(-c3ccccc3)no2)c(OCCCCl)c1
## Input Hi! Which is lower in terms of pIC50, the first one I or the second one II ? Kindly give the label for the entry you pick.
## Output II
(II: 4.24, I: 5.26)

I = COc1ccc(-c2cc(-c3ccccc3)no2)c(OCCN2CCCCC2)c1
II = COc1ccc(-c2cc(-c3ccccc3)no2)c(OCC(O)CN2CCCC2)c1 (stereo unspecified)
## Input Which numeric pIC50 is bigger, that of I or that of II ? Kindly give the label for the entry you pick.
## Output II
